target: Mucolipin-1 (Homo sapiens); test: qHTS for Agonists of the Human Mucolipin Transient Receptor Potential 1 (TRPML1); details: TRPML1-expressing cells, Ca2+ dye fluorescence, FDSS; hits give high values; also: 0% is about no effect
Screen size: about 410,000 compounds; about 480 (0.12%) were called active. The sample as a whole holds a higher share of actives than the screen did.
measurementName: activation (%)

- compound: "C=C1C=C(C)n2ncc(C(=O)Nc3ccccc3O)c2N1"
  observedMeasurement: -0.539
- compound: "CCC(=O)N1CCc2cc(Br)cc(S(=O)(=O)CCC(=O)NCCc3ccc(OC)c(OC)c3)c21"
  observedMeasurement: -0.301
- compound: "CCOC(=O)c1c(NC(=O)c2ccc(S(=O)(=O)N3CCCC(C)C3)cc2)sc2c1CCN(C(C)C)C2 (stereo not given)"
  observedMeasurement: 0.257
- compound: "Cc1ccc(-c2nnc3ccc(SCC(N)=O)nn23)cc1"
  observedMeasurement: -0.578
- compound: "c1ccc(Cn2nnc3c(N4CCCCC4)ncnc32)cc1"
  observedMeasurement: -0.998

----------
Target: Mucolipin-1 (Homo sapiens) (UniProt Q9GZU1)
Sequence (Q9GZU1 whole entry, looked up): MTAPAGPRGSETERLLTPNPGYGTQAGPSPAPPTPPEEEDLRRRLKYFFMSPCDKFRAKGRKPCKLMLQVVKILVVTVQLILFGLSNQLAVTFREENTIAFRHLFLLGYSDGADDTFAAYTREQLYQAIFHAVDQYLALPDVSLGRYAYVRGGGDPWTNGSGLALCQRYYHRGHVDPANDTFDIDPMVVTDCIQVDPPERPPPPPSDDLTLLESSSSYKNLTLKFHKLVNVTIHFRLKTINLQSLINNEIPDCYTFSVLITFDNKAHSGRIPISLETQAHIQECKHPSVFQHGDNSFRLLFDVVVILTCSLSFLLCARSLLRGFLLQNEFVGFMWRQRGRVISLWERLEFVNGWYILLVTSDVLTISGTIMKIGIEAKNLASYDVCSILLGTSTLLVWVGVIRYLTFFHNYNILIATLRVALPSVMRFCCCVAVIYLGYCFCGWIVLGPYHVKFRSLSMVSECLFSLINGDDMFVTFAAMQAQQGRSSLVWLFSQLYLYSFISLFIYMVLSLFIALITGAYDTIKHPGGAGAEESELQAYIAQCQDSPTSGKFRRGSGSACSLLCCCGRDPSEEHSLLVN
Test: qHTS for Agonists of the Human Mucolipin Transient Receptor Potential 1 (TRPML1); also: 0% is about no effect
Details: TRPML1-expressing cells, Ca2+ dye fluorescence, FDSS
Description: Mutations of human Mucolipin transient receptor potential 1 (TRPML1) cause type IV mucolipidosis (ML4), a devastating neurodegenerative disease in young children. […] Currently, there is no treatment for ML4. […] TRPML1-DL cells are dissociated from flasks, counted and, brought up to a density of 500,000 cells per mL of media containing a 1X Tet inducer. […]
In all, about 410,000 compounds went through this assay and about 480 (0.12%) were called active. No stated cut-off is given here; in the data, active means activation above about 50%; inconclusive means mostly about 30% to 49%; inactive means weaker than that. The entries come from a sample that favours actives as a whole.
Possible outcomes: active, inactive

- compound: "Cc1ccccc1NC(=O)Cn1c(=O)n(CC2CCC(C(=O)NCCc3ccccc3)CC2)c(=O)c2ccccc21 (stereo not given)"
  groupLabel: "inactive"
- compound: "CCN1/C(=C/c2ccc3ccc(C)cc3[n+]2CC)Sc2ccccc21"
  groupLabel: "active"
- compound: "CN(C(=N)N)c1ccc(/C=C2\\C=Cc3ccccc32)cc1"
  groupLabel: "inactive"
- compound: "O=C(c1ccc2c(c1)N(Cc1ccccc1)C(=O)c1ccccc1S2(=O)=O)N1CCC(Cc2ccccc2)CC1"
  groupLabel: "inactive"
- compound: "N#Cc1ccc[n+](CC(=O)c2ccc(F)cc2)c1"
  groupLabel: "inactive"
- compound: "OC(CBr)CN1CCCCC1 (stereo not given)"
  groupLabel: "inactive"
- compound: "CCC(C)N(c1ccc(/C=C/c2ccnc3ccccc23)cc1)C(C)CC (stereo not given)"
  groupLabel: "inactive"
- compound: "COc1ccccc1N1CCN(c2ncnc3onc(-c4ccc(F)cc4)c23)CC1"
  groupLabel: "inactive"
- compound: "COc1cc2[nH]c(C)c(CCN3CCN(c4ccccc4)CC3)c2cc1OC"
  groupLabel: "inactive"
- compound: "COC(=O)C1=C(C(=O)OC)[C@@H]2N(Cc3ccccc3)c3ccccc3[C@@]23C[C@@H](C(=O)OC)N(S(=O)(=O)c2ccc(C(F)(F)F)cc2)C3=N1"
  groupLabel: "inactive"

----------
molecular target: Mucolipin-1 (Homo sapiens); assay: qHTS for Agonists of the Human Mucolipin Transient Receptor Potential 1 (TRPML1); settings: TRPML1-expressing cells, Ca2+ dye fluorescence, FDSS; also: 0% is about no effect
Out of some 410,000 compounds screened, about 480 (0.12%) were called active. Rule as the data show it: active = activation above about 50%; inconclusive = mostly about 30% to 49%; inactive = weaker than that. The sample as a whole holds a higher share of actives than the screen did.
Possible outcomes: TRUE for active, FALSE for inactive

- molecule: "COc1ccccc1C(c1nnnn1CC1CCCO1)N1CCN(c2ccccc2)CC1 (configuration not stated)"
  groupLabel: "FALSE"
- molecule: "C/C(=N\\NC(N)=S)c1ccncc1"
  groupLabel: "FALSE"
- molecule: "CCC(C(=O)Nc1cccc(Cl)c1C)n1nc(-c2ccc(C)cc2)ccc1=O (configuration not stated)"
  groupLabel: "FALSE"
- molecule: "COc1ccc(S(=O)(=O)c2c(Nc3cccc(Cl)c3)sc(C(=O)c3ccccc3)c2N)cc1"
  groupLabel: "FALSE"
- molecule: "CCn1c2ccccc2c2cc(CN3CCN(Cc4cccc(Cl)c4)CC3)ccc21"
  groupLabel: "FALSE"
- molecule: "COc1cc(OC)c(OC)cc1/C=C1\\C=Cc2ccccc21"
  groupLabel: "FALSE"
- molecule: "OCCNc1ncnc2oc(-c3ccco3)c(-c3ccco3)c12"
  groupLabel: "FALSE"
- molecule: "C/C=C/NNC(=O)Cc1ccc(OC)cc1"
  groupLabel: "FALSE"
- molecule: "Cc1cccc(N2CCN(C(c3ccccc3)c3nnnn3CC3CCCO3)CC2)c1C (configuration not stated)"
  groupLabel: "TRUE"
- molecule: "COc1cc(OC)c(NC(=O)Cc2ccc(-n3c(C)nc4cccnc43)cc2)cc1Cl"
  groupLabel: "FALSE"
- molecule: "Nc1ncnc2nnsc12"
  groupLabel: "FALSE"
- molecule: "CN(C)c1ccc(/C=C2\\C=Cc3ccccc32)cc1Br"
  groupLabel: "FALSE"
- molecule: "CCN(CC)c1ccc2cc(C(N)=O)/c(=N\\NC(=O)c3ccncc3)oc2c1"
  groupLabel: "TRUE"
- molecule: "Brc1cccc[n+]1Cc1cccc(C[n+]2ccccc2Br)c1"
  groupLabel: "FALSE"
- molecule: "Cc1cc(=O)n(CC(=O)Nc2cccc([N+](=O)[O-])c2)c(-n2nc(C)cc2C)n1"
  groupLabel: "FALSE"
- molecule: "Cc1ccc(NC(=O)c2ccc(CN3CC(=O)N4CCCCC4C3=O)cc2)c(Cl)c1 (configuration not stated)"
  groupLabel: "FALSE"
- molecule: "Cc1cccc(N2CCN(C(c3ccc(N(C)C)cc3)c3nnnn3C(C)(C)C)CC2)c1C (configuration not stated)"
  groupLabel: "FALSE"
- molecule: "CCOc1n[nH]c(-c2ccccc2)n1"
  groupLabel: "FALSE"
- molecule: "CC1=C(c2ccc(F)cc2)S(=O)(=O)N=C1N1CCC(C(=O)NCCc2ccccc2C)CC1"
  groupLabel: "FALSE"
- molecule: "CC(=O)c1ccc[n+](C(C)CCC(C)[n+]2cccc(C(C)=O)c2)c1 (configuration not stated)"
  groupLabel: "FALSE"
- molecule: "CCOC(=O)c1ccc(NC(=O)CC2C(=O)N(c3ccccc3)C(=O)N2Cc2cccs2)cc1 (configuration not stated)"
  groupLabel: "FALSE"
- molecule: "O=C(Nc1ccc([N+](=O)[O-])cc1)c1cnn2c1NC(=C1CC1)C=C2C(F)F"
  groupLabel: "FALSE"
